- TARGET: E200 peptide
- TEST DETAILS: Biacore, PEP2-Fc on E200
ASSAY ENDPOINT: pKd
// pKd here means minus log10 of the molar concentration (mol/L)

Asked: Need pKd of PEP2-247-1 Fc (Fc fusion, not shown: a dimerising Fc or GST) EVQLLESGGGLVQPGGSLRLSCAASGFTFRNHDMGWVRQAPGKGLEWVSAISGSGGGTYYADSVKGRFTISRDNSKNTLYLQMNSLRAEDTAVYYCAEPSHFDRPFDYRSQGTLVTVSS , thanks.
Given back: 9.72

Asked: Can you check PEP2-47-1 Fc (Fc fusion, not shown: a dimerising Fc or GST) EVQLLESGGGLVQPGGSLRLSCAASGYTFPMKDMGWVRQAPGKGLEWVSAISGSGGGTYYADSVKGRFTISRDNSKNTLYLQMNSLRAEDTAVYYCAEPSHFDRPFDYRSQGTLVTVSS next?
Given back: 9.96

Asked: Same question, PEP2-42-1 Fc (Fc fusion, not shown: a dimerising Fc or GST) EVQMLESGGGLVQPGGSLRLSCAASGFTFDNVEMSWVRQAPGKGLEWVSSIGTKGEYTYYADSVKGRFTISRDNSKNTLYLQMNSMRAEDTAVYYCAQTVNVPEPAFAYWGQGTLVTVLS this time
Given back: 9.92

Asked: PEP2-47 Fc (Fc fusion, not shown: a dimerising Fc or GST) EVQLLESGGGLVQPGGSLRLSCAASGFTFPMKDMGWVRQAPGKGLEWVSAISGSGGSTYYADSVKGRFTISRDNSKNTLYLQMNSLRAEDTAVYYCAEPSHFDRPFDYWGQGTLVTVSS ?
Given back: 8.12
